ASSAY_EXPLANATION: Cytotoxicity against human HL2/3 cells assessed as decrease in cell viability by alamar blue/presto blue assay
Format: toxicity, cell-based
READOUT_LABEL: CC50

compound_string=O=C(CCC(=O)Nc1ccc(C(=O)N[C@@H](Cc2c[nH]c3ccccc23)C(=O)O)cc1OCCc1c[nH]c2ccccc12)NCCOCCOCCOCCNC(=O)CCC(=O)Nc1ccc(C(=O)N[C@@H](Cc2c[nH]c3ccccc23)C(=O)O)cc1OCCc1c[nH]c2ccccc12 readout_label=CC50 result="> 100 µM"
compound_string=O=C(CCc1c[nH]c2ccccc12)NCCCCCC(=O)Nc1ccc(C(=O)N[C@@H](Cc2c[nH]c3ccccc23)C(=O)O)cc1OCCc1c[nH]c2ccccc12 readout_label=CC50 result="> 100 µM"
compound_string=O=C(CCC(=O)Nc1ccc(C(=O)N[C@@H](Cc2c[nH]c3ccccc23)C(=O)O)cc1OCc1ccc(Cl)cc1)NCCOCCOCCOCCNC(=O)CCC(=O)Nc1ccc(C(=O)N[C@@H](Cc2c[nH]c3ccccc23)C(=O)O)cc1OCc1ccc(Cl)cc1 readout_label=CC50 result="> 100 µM"
compound_string=O=C(CCc1c[nH]c2ccccc12)NCCCCCC(=O)Nc1ccc(C(=O)N[C@@H](Cc2c[nH]c3ccccc23)C(=O)O)cc1OCc1ccc(Cl)cc1 readout_label=CC50 result="> 100 µM"
compound_string=Nc1ccc(C(=O)N[C@@H](Cc2c[nH]c3ccccc23)C(=O)O)cc1OCc1ccc(Cl)cc1 readout_label=CC50 result="> 50 µM"
compound_string=Nc1ccc(C(=O)N[C@@H](Cc2c[nH]c3ccccc23)C(=O)O)cc1OCCc1c[nH]c2ccccc12 readout_label=CC50 result="> 50 µM"
